Exercise: for every item that follows, state its recorded folding stability dG.
B1: HHH_rd2_0155 (parent)
chain: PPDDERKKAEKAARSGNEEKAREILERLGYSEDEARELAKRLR

Variants of: B1
Assay Protocol: folding stability dG (cDNA display proteolysis); higher = more stable
Condition: PBS, room temperature
Give bare numbers, in kcal/mol.

[[record]]
mutation_spec = "K7Y"
quantitative_readout = 1.91


Quick one: give me folding stability dG for each item below, same order please.
1. A21C
2. L38M
3. Y30L
4. K20M
5. E10H

A:
1.87
2.09
1.79
2.19
1.75

Quick one: give me folding stability dG for each item below, same order please.
1. D33T
2. E10Y

A:
1. 1.92
2. 2.44
